# Test system: OVCAR-3
# procedure text: NCI tumour cell line growth inhibition, 48 h
Calls of active or inactive are those of the source. Cut-off read from the data, not from the text of the source: active = GI50 up to about 1.1 µM and inactive = higher.
measured endpoint: GI50

>>> df
                                   compound        endpoint_value
0  O=C(C(=O)c1cc2ccccc2[nH]1)c1cc2ccccc2[nH]1    12.8 µM (inactive)
1           CCOC(=O)CCc1cn2cc(Br)nc(OC)c2n1    57.7 µM (inactive)
2          Nc1nc(Cl)c2ncn(Cc3ccccc3CCl)c2n1    3.37 µM (inactive)
3           Nc1onc2c1Cc1c(noc1N)-c1ccccc1-2    53.7 µM (inactive)
4  COC(=O)c1cc2c3c(ccc2[nH]1)N(C(=O)c1cc2cc(OC)c(OC)c(OC)c2[nH]1)CC3CCl (stereo unspecified)  > 24.4 µM (inactive)
5          Cn1c(=O)c2[nH]cnc2n(CC(N)=O)c1=O   > 100 µM (inactive)

###

# System: NCI-H460
# procedure text: NCI tumour cell line growth inhibition, 48 h
Activity calls are given as the source filed them. Cut-off read from the data, not from the text of the source: active = GI50 up to about 1.1 µM and inactive = higher.
Labels: y (active), n (inactive)

compound	group label
CC(C)(C)[Si](C)(C)OCC1CCC(n2cnc3c(NC(=O)c4ccccc4)ncnc32)O1 (stereo not given)	n
Cc1c(-c2ccccc2)c(C#N)c2nnn(-c3ccc(Cl)cc3)c(=O)n12	n
O=C(c1ccc(Cl)cc1)C(O)c1ccc(Cl)cc1 (stereo not given)	n
OC1NC2CC3NC(O)C(O)NC3CC2NC1O (stereo not given)	n
C=CCNC(=O)NC(=O)CSC1=NC(=O)C2(NN1)c1ccccc1-c1ccccc12	n
CC(C)=CC1C[C@H](C2CC=C3C2(C)CCC2[C@@]3(C)C(=O)CC3[C@]2(C)C=CC(=O)[C@]3(C)CO)CO1 (stereo not given in full)	n
N=C(N)NS(=O)(=O)c1ccc(NC(=O)c2ccc3nc4ccccc4c(N)c3c2)cc1	n
c1ccc(CN[C@]23C4C5CC6C7C5C2C7[C@@](NCc2ccccc2)(C64)N3Cc2ccccc2)cc1 (stereo not given in full)	n
C=C(Cl)C(C)(Cl)CCC(Cl)C(C)C (stereo not given)	n
CCC(=C(c1ccc(OCc2ccccc2)cc1)c1ccc(OCc2ccccc2)cc1)c1ccc(OC)cc1	n
CCOC(=O)C(C(=O)OCC)=C1C=C(c2ccccc2)c2ccccc21	n
c1ccc2c(c1)CCCc1cc3ccccc3nc1-2	n
COC(=O)C1(NC(=O)C(CC(=O)OCc2ccccc2)NC(=O)OCc2ccccc2)CCCCCCC1 (stereo not given)	n
COc1ccc2c(C=O)c3n(c(=O)c2c1OC)CCc1cc2c(cc1-3)OCO2	n
CSCCC(NC(=O)Cc1ccc(C(=O)c2ccccc2)cc1)C(=O)O (stereo not given)	n
COC(=O)c1c/c(=N\NC(=O)CC(=O)Nc2ccc(C)cc2)c2ccccc2o1	n
Nc1onc2c1Cc1c(noc1N)-c1ccccc1-2	n
O=c1[nH]c(=S)[nH]c(-c2ccccc2)c1Cc1c(O)ccc2ccccc12	n
N=c1oc2ccccc2cc1-c1nc2ccccc2c(=O)[nH]1	n
NC(=O)C(=CNC(=S)Nc1ccc(S(=O)(=O)Nc2ccccn2)cc1)C(N)=O	n
COc1ccc(-c2cc(-c3ccccc3)c(C#N)c(=O)[nH]2)cc1	n
CCOC(CBr)OC1C(=O)OCC1(C)C (stereo not given)	n
O=C1Nc2cc(Cl)ccc2N=CC1NC(=O)C(c1ccccc1)c1ccccc1Cl (stereo not given)	n
O=C1c2ccccc2C(=O)N1n1c(Cc2ccccc2)n[nH]c1=O	n
Cc1ccc(C)c(NC(=O)c2cc(-c3ccc([N+](=O)[O-])cc3)nc(N)n2)c1	n
CC(=O)Nc1cccc(N2C(=O)/C(=C\c3cccc(Oc4ccccc4)c3)S(=O)(=O)C2c2ccccc2)c1 (stereo not given)	n
CCN(CC)C1CCC(C2c3cc4c(cc3OC(N3CCOCC3)C2C)OCO4)CC1 (stereo not given)	n
N=c1c2ccccc2nc2oc3cc([N+](=O)[O-])ccc3n12	n
N#CC(/C(=N/NC(=N)N)C(=O)Nc1ccccc1[N+](=O)[O-])c1nc(-c2ccc([N+](=O)[O-])cc2)cs1 (stereo not given)	n
N#CCCN(CCC#N)c1ccc(C(=N/c2ccc(F)cc2)/N=N/c2ccccc2)cc1	n
COc1ccc(C2=C(N)c3ncccc3C2=O)cc1	n
C=CCNC(=S)N/C=C1\C(=O)Oc2ccccc2C1=O	n
CC(=O)OCC(OC(C)=O)C(OC(C)=O)C(OC(C)=O)C(C=NN(C(C)=O)S(=O)(=O)c1ccc(/C=C2\NC(=O)N(C)C2=O)cc1)OC(C)=O (stereo not given)	n
Brc1cccc(/C=N/C23CC4CC(CC(C4)C2)C3)c1	n
O=CC1CCC=CC1NC(=O)OCc1ccccc1 (stereo not given)	n
COc1ccc(CN[C@H]2CCc3cc(OC)c(OC)c(OC)c3-c3ccc(SC)c(=O)cc32)c(OC)c1OC	y
O=c1ccn2n1Cc1ccccc1C2	n
CC(=O)OCC1OC(O[C@@H]2C[C@H]3C(C)(C)[C@H](OC(C)=O)CC[C@]3(C)[C@H]3CC[C@]4(C)C(=CC[C@H]4[C@@H](C)C[C@@H](O)[C@H](O)C(C)(C)O)[C@@]32C)C(O)C(O)C1O (stereo not given in full)	n
CCN(CC)CC(C(=O)Nc1c(C)cccc1C)/C(C)=N\NC(=O)C[N+](C)(C)C (stereo not given)	n
CN(C)CC1CC/C(=C\c2ccc(Cl)c(Cl)c2)C1=O (stereo not given)	n

Value source: ChEMBL document CHEMBL1201862
